Target: Stimulator of interferon genes protein (Mus musculus, UniProt Q3TBT3)
Sequence (Q3TBT3 whole entry): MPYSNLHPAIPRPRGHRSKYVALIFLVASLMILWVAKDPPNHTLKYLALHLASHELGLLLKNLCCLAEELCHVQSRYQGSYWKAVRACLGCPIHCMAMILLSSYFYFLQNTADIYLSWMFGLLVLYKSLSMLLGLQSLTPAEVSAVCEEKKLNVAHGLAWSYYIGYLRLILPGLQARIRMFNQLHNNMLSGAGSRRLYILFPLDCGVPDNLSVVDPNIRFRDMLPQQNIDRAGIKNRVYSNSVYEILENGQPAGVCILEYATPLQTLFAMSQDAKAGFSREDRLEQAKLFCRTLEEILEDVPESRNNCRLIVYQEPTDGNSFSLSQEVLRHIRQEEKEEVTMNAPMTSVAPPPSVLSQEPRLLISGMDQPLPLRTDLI
Assay: Competitive inhibition of 5-FAM labelled diABZI binding to recombinant 6-his tagged mouse STING C-terminal domain (144 to 378 residues) expressed in Escherichia coli BL21 (DE3) cells incubated for 10 mins by fluorescence polarization assay
METRIC NAME: IC50
Returns: string containing the number followed by the unit.

Lookup: Item O=C(Nc1cc(F)c(F)cc1C(=O)O)c1ccc(-n2ccnc2)nn1 has what recorded IC50?
Found: 2.2 µM

Lookup: Now the molecule C#Cc1cc(NC(=O)c2ccc(-n3ccc(C#N)c3)nn2)c(C(=O)O)cc1F
Found: 4.72 µM

Lookup: Now the molecule N#Cc1ccn(-c2ccc(C(=O)Nc3cc(Cl)c(Cl)cc3C(=O)O)nn2)c1
Found: 4.58 µM

Lookup: Now the molecule CCCn1c(NC(=O)c2cc(C)nn2C)nc2cc(C(N)=O)cc(OC3COC3)c21
Found: 3.75 µM

Lookup: Now the molecule N#Cc1ccn(-c2ccc(C(=O)Nc3cc(Br)c(Cl)cc3C(=O)O)nn2)c1
Found: 4.36 µM
